- Study Target: T1, GnRH Bio-peptide 2 (not fully specified)
- T1 chain: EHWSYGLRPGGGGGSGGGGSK
- Procedure Summary: ELISA
pEC50: −log10 of the molar value.
Observable: pEC50

# Binder, pEC50
measured = [
    ("01Tm4 (antibody, V domains shown) VH: DVQLVESGGGLVQPGGSLRLSCAASGRTFSNYVLGWFRQTPGKEREFVAAIRGTGSTTHADSVKGRFTISRDNAKNTVYLQMNSLKPEDTAVYYCAADDAYYPGNLRPQYWGQGTQVTVSS", 9.49),
    ("01Tm3 (antibody, V domains shown) VH: DVQLVESGGGLVQPGGSLRLSCAASGRTFNAYVLGWFRQTPGKEREFVAAIRGTGSTTHADSVKGRFTISRDNAKNTVYLQMNSLKPEDTAVYYCAADDAYYPGNLRPQYWGQGTQVTVSS", 9.48),
    ("Clone 1 (pGnRH-001) (antibody, V domains shown) VH: QVQLVESGGGLVQAGGSVRLSCTASGRTFNNYVLGWFRQTPGKEREFVAAIRGTGSTTHADSVKGRFTISRDNAKNTVYLQMNSLKPEDTAVYYCAADDAYYPGNLRPQYWGQGTQVTVSS", 9.52),
    ("01Tm1 (antibody, V domains shown) VH: DVQLVESGGGLVQPGGSLRLSCAASGRTFNNYVLGWFRQTPGKEREFVAAIRGTGSTTHADSVKGRFTISRDNAKNTVYLQMNSLKPEDTAVYYCAADDAYYPGNLRPQYWGQGTQVTVSS", 9.48),
    ("01Tm2 (antibody, V domains shown) VH: DVQLVESGGGLVQPGGSLRLSCAASGRTFQNYVLGWFRQTPGKEREFVAAIRGTGSTTHADSVKGRFTISRDNAKNTVYLQMNSLKPEDTAVYYCAADDAYYPGNLRPQYWGQGTQVTVSS", 9.49),
]
